tested on: SK-MEL-2 melanoma; assay: NCI tumour cell line growth inhibition, 48 h
Reported TGI values are given for each entry in this list.

Recorded TGI, per entry:
{"compound": "Nc1nc(/C=C\\c2ccc([N+](=O)[O-])o2)nc(N2CCN(c3ccccc3)CC2)n1", "TGI": "> 100 µM"}
{"compound": "O=C(O)CSSCC(=O)O", "TGI": "> 100 µM"}

Recall the recorded TGI for N#CSc1ncnc2nc[nH]c12 with SK-MEL-2 melanoma and state it.
> 100 µM

Recall the recorded TGI for O=C(CC1Sc2ccccc2NC1=O)Nc1cc(Cl)ccc1Cl (stereo not drawn) with SK-MEL-2 melanoma and state it.
> 100 µM

Recall the recorded TGI for CN(C)CCNC(=O)c1cccn2c(=O)c3cc4ccccc4cc3nc12 with SK-MEL-2 melanoma and state it.
1.32 µM

Recall the recorded TGI for COc1ccc(OC)c2sc(N3C(=O)/C(=C/Cc4ccco4)N=C3c3ccccc3)nc12 with SK-MEL-2 melanoma and state it.
67.3 µM

Recall the recorded TGI for C=C1C(=O)O[C@H]2C[C@@H](C)[C@@H]3CC(=O)OC[C@@]3(C)CC12 (stereo partly drawn) with SK-MEL-2 melanoma and state it.
> 100 µM

Recall the recorded TGI for COc1ccc(/C=C2\OC(=O)C(Cl)=C2c2ccc(OC)cc2)cc1 with SK-MEL-2 melanoma and state it.
> 100 µM

Recall the recorded TGI for COc1cc2c(/C=C3/C(=O)Nc4ccc(Cl)cc43)c(Cl)n(Cc3ccccc3)c2cc1C with SK-MEL-2 melanoma and state it.
34.9 µM

Recall the recorded TGI for O=C1C(Cl)=C(N/N=c2/[nH][nH]/c(=N/NC3=C(Cl)C(=O)c4ccccc4C3=O)c3ccccc23)C(=O)c2ccccc21 with SK-MEL-2 melanoma and state it.
35.9 µM

Recall the recorded TGI for CN(C)c1ccc2nc3ccc(=[N+](C)C)cc-3oc2c1 with SK-MEL-2 melanoma and state it.
11.1 µM

Recall the recorded TGI for CC1=NC(=O)C(C)(c2ccccc2)N1CCc1ccccc1 (stereo not drawn) with SK-MEL-2 melanoma and state it.
> 100 µM

Recall the recorded TGI for Oc1ccccc1/C=N/Nc1nnc2c3ccccc3c3ccccc3c2n1 with SK-MEL-2 melanoma and state it.
> 100 µM
